Biological target: mu opiate receptor (Rattus norvegicus)
Construct: from tissue; host or cells: rat brain membranes/homogenate
Assay: Inhibition of [3H]DAMGO binding to the mu opiate receptor in rat brain homogenates
Details: percent inhibition of DAMGO binding; 0.08 mg of compound per milliliter, 7 nM 3H-labeled DAMGO, rat brain membranes
% Inhibition values by entry
The answer is to be given in %; state only the numeric part.

[[record]]
molecule = "Cc1ccc(Cc2nc(C(C)C)c3n2C(C(C)C)C(=O)N3)cc1 (racemic)"
measured_property = "% Inhibition"
units_symbol = "%"
experimental_value = 42


Item Cc1nc(CC(C)C)c2n1C(C(C)C)C(=O)N2 (centres unmarked) [Pool 37] with mu opiate receptor (Rattus norvegicus) - % Inhibition? 34

Item CC(C)c1nc(Cc2cc(C(F)(F)F)cc(C(F)(F)F)c2)n2c1NC(=O)C2C(C)C (racemic) with mu opiate receptor (Rattus norvegicus) - % Inhibition? 37

Item Cc1nc(C(C)C)c2n1C(C(C)C)C(=O)N2 (centres unmarked) [Pool 142] with mu opiate receptor (Rattus norvegicus) - % Inhibition? 33

Item CCC(C)C1C(=O)Nc2c(C(C)C)nc(C)n21 (centres unmarked) [Pool 5] with mu opiate receptor (Rattus norvegicus) - % Inhibition? 22

----------
Target: mu opiate receptor (Rattus norvegicus)
Construct: from tissue; host or cells: rat brain membranes/homogenate
Assay: Inhibition of [3H]DAMGO binding to the mu opiate receptor in rat brain homogenates
Details: [3H]DAMGO bound; 0.08 mg of compound per milliliter, 7 nM 3H-labeled DAMGO, rat brain membranes
// boundary case: % Bound equal to 60% maps to false (0); strictly smaller maps to true (1)

Given the entry CC(C)c1nc(Cc2cc(C(F)(F)F)cc(C(F)(F)F)c2)n2c1NC(=O)C2C(C)C (racemic) , would its reported % Bound be below 60%? false (0)

----------
Biological target: mu opiate receptor (Rattus norvegicus, UniProt P33535)
Construct: from tissue; host or cells: rat brain membranes/homogenate
Sequence (P33535 whole entry): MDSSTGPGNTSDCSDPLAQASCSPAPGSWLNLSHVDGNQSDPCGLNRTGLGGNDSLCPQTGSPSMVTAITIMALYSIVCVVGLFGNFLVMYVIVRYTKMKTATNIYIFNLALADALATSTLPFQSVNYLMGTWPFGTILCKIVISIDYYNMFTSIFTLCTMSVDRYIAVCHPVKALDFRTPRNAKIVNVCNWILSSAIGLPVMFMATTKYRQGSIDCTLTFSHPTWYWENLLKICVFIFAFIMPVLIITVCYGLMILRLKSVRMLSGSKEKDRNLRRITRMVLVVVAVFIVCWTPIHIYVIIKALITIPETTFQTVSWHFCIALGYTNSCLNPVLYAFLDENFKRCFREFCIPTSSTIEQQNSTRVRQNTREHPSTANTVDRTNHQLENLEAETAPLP
Assay: Inhibition of [3H]DAMGO binding to the mu opiate receptor in rat brain homogenates
Settings: mean minus non-specific binding; 0.08 mg of compound per milliliter, 7 nM 3H-labeled DAMGO, rat brain membranes
Minus NSB* values by entry
# print the numeric value only

See these solved cases before continuing.
[[record]]
molecule = "CC(C)c1nc(Cc2ccccc2)n2c1NC(=O)C2C(C)C (racemic) [Pool 110]"
measured_property = "Minus NSB*"
experimental_value = 510.70

[[record]]
molecule = "CCCCC1C(=O)Nc2c(C(C)C)nc(C)n21 (stereo not shown) [Pool 27]"
measured_property = "Minus NSB*"
experimental_value = 563.25

[[record]]
molecule = "Cc1nc(CC2CCCCC2)c2n1C(C(C)C)C(=O)N2 (racemic) [Pool 62]"
measured_property = "Minus NSB*"
experimental_value = 497.00

[[record]]
molecule = "CC(C)c1nc(CCCC2CCCCC2)n2c1NC(=O)C2C(C)C (stereo not shown) [Pool 140]"
measured_property = "Minus NSB*"
experimental_value = 307.55


Item CC(C)c1nc(CC2CC3CCC2C3)n2c1NC(=O)C2C(C)C (stereo not shown) [Pool 155] with mu opiate receptor (Rattus norvegicus, UniProt P33535) - Minus NSB*? 610.35

Item CCC(CC)c1nc(C(C)C)c2n1C(C(C)C)C(=O)N2 (stereo not shown) [Pool 157] with mu opiate receptor (Rattus norvegicus, UniProt P33535) - Minus NSB*? 622.35

Item COc1ccc(Cc2nc(C(C)C)c3n2C(C(C)C)C(=O)N3)cc1 (racemic) [Pool 78] with mu opiate receptor (Rattus norvegicus, UniProt P33535) - Minus NSB*? 467.20

Item CC(C)c1nc(Cc2cccc(Br)c2)n2c1NC(=O)C2C(C)C (racemic) [Pool 72] with mu opiate receptor (Rattus norvegicus, UniProt P33535) - Minus NSB*? 255.00

Item CCCc1nc(C(C)C)c2n1C(C(C)C)C(=O)N2 (racemic) [Pool 121] with mu opiate receptor (Rattus norvegicus, UniProt P33535) - Minus NSB*? 518.45

Item CCCc1nc(C)n2c1NC(=O)C2C(C)C (racemic) [Pool 61] with mu opiate receptor (Rattus norvegicus, UniProt P33535) - Minus NSB*? 369.65

----------
Molecular target: kappa opiate receptor (Cavia porcellus)
Construct: guinea pig cortices and cerebella were homogenized in 40 mL of Buffer A; from tissue; host or cells: guinea pig cortices and cerebella, crude membrane suspension
Sequence (P41144 whole entry): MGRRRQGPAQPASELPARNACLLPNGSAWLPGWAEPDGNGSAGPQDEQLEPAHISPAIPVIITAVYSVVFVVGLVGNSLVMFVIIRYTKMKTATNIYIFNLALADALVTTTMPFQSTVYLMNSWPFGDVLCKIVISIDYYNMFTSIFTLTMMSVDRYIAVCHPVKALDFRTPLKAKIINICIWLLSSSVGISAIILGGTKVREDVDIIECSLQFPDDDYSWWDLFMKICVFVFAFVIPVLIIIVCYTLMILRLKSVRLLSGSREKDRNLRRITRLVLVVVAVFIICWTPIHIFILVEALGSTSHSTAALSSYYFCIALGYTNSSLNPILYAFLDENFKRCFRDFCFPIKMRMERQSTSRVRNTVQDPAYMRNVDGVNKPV
Assay: Inhibition of tritiated U69,593 binding to the kappa opiate receptor in guinea pig brain homogenates
Conditions: mean minus non-specific binding; 3 nm tritiated U69,593, guinea pig brain membranes
Minus NSB values by entry
# print the numeric value only

[[record]]
compound = "CC(C)c1nc(C2CCC2)n2c1NC(=O)C2C(C)C (centres unmarked) [Pool 144]"
target_system = "kappa opiate receptor (Cavia porcellus)"
measured_property = "Minus NSB"
experimental_value = 540.50

[[record]]
compound = "Cc1nc(CO)c2n1C(C(C)C)C(=O)N2 (centres unmarked) [Pool 39]"
target_system = "kappa opiate receptor (Cavia porcellus)"
measured_property = "Minus NSB"
experimental_value = 816.65

[[record]]
compound = "COc1cccc(Cc2nc(C(C)C)c3n2C(C(C)C)C(=O)N3)c1 (racemic) [Pool 76]"
target_system = "kappa opiate receptor (Cavia porcellus)"
measured_property = "Minus NSB"
experimental_value = 952.10

[[record]]
compound = "CCC(C)C1C(=O)Nc2c(C(C)C)nc(C)n21 (centres unmarked) [Pool 21]"
target_system = "kappa opiate receptor (Cavia porcellus)"
measured_property = "Minus NSB"
experimental_value = 589.70

[[record]]
compound = "CC(C)c1nc(CC2CCCCC2)n2c1NC(=O)C2C(C)C (centres unmarked) [Pool 138]"
target_system = "kappa opiate receptor (Cavia porcellus)"
measured_property = "Minus NSB"
experimental_value = 732.30


For the compound CC(C)c1nc(Cc2cc(C(F)(F)F)cc(C(F)(F)F)c2)n2c1NC(=O)C2C(C)C (racemic) [Pool 82] , what Minus NSB is on record? 731.30

For the compound CC(C)c1nc(C2(c3ccccc3)CC2)n2c1NC(=O)C2C(C)C (racemic) [Pool 67] , what Minus NSB is on record? 877.10

For the compound Cc1nc(CC2CCCCC2)c2n1C(C(C)C)C(=O)N2 (centres unmarked) [Pool 46] , what Minus NSB is on record? 1262.00

For the compound CC(C)c1nc(Cc2cccc(Br)c2)n2c1NC(=O)C2C(C)C (racemic) [Pool 72] , what Minus NSB is on record? 681.15

For the compound CCC(C)c1nc(C(C)C)c2n1C(C(C)C)C(=O)N2 (mixture of isomers) [Pool 124] , what Minus NSB is on record? 648.85

For the compound CC(C)c1nc(Cc2ccccc2)n2c1NC(=O)C2C(C)C (racemic) [Pool 110] , what Minus NSB is on record? 760.95

For the compound Cc1nc(C(C)C)c2n1C(C(C)C)C(=O)N2 (centres unmarked) [Pool 3] , what Minus NSB is on record? 561.80

For the compound CCC(C)c1nc(C)n2c1NC(=O)C2C(C)C (centres unmarked) [Pool 38] , what Minus NSB is on record? 711.10

For the compound Cc1nc(C(C)C)c2n1C(CC(C)C)C(=O)N2 (centres unmarked) [Pool 4] , what Minus NSB is on record? 988.55

For the compound CC(C)c1nc(CC(C)(C)C)n2c1NC(=O)C2C(C)C (centres unmarked) [Pool 136] , what Minus NSB is on record? 834.90

For the compound CC(C)c1nc(CC23CC4CC(CC(C4)C2)C3)n2c1NC(=O)C2C(C)C (centres unmarked) [Pool 156] , what Minus NSB is on record? 816.40

For the compound CCC(C)C1C(=O)Nc2c(C(C)C)nc(C)n21 (centres unmarked) [Pool 5] , what Minus NSB is on record? 777.45

For the compound CSCCc1nc(C)n2c1NC(=O)C2C(C)C (racemic) [Pool 59] , what Minus NSB is on record? 817.95

For the compound CC(C)c1nc(C2CCCCC2)n2c1NC(=O)C2C(C)C (centres unmarked) [Pool 137] , what Minus NSB is on record? 1342.85

For the compound CCC(CC)c1nc(C(C)C)c2n1C(C(C)C)C(=O)N2 (centres unmarked) [Pool 157] , what Minus NSB is on record? 566.05

----------
Target: mu opiate receptor (Rattus norvegicus, UniProt P33535)
Construct: from tissue; host or cells: rat brain membranes/homogenate
Test: Inhibition of [3H]DAMGO binding to the mu opiate receptor in rat brain homogenates
Conditions: percent inhibition of DAMGO binding; 0.08 mg of compound per milliliter, 7 nM 3H-labeled DAMGO, rat brain membranes
% Inhibition values by entry
The answer is to be given in %; state only the numeric part.

See these solved cases before continuing.
[[record]]
molecule = "Cc1nc(C(C)C)c2n1C(C(C)C)C(=O)N2 (stereo not shown) [Pool 19]"
units_symbol = "%"
experimental_value = 25

[[record]]
molecule = "CC(C)c1nc(C2(c3ccccc3)CC2)n2c1NC(=O)C2C(C)C (racemic) [Pool 67]"
units_symbol = "%"
experimental_value = 45

[[record]]
molecule = "CC(C)c1nc(C2CCC2)n2c1NC(=O)C2C(C)C (stereo not shown) [Pool 144]"
units_symbol = "%"
experimental_value = 41

[[record]]
molecule = "CC(C)c1nc(C(C)C)n2c1NC(=O)C2C(C)C (racemic) [Pool 123]"
units_symbol = "%"
experimental_value = 45


For the molecule CCCC1C(=O)Nc2c(C(C)C)nc(C)n21 (stereo not shown) [Pool 28] , what % Inhibition is on record? 34

For the molecule Cc1nc(C(C)C)c2n1C(C(C)C)C(=O)N2 (stereo not shown) [Pool 3] , what % Inhibition is on record? 30

For the molecule CC(C)c1nc(CC2CC3CCC2C3)n2c1NC(=O)C2C(C)C (stereo not shown) [Pool 155] , what % Inhibition is on record? 36

For the molecule Cc1nc(Cc2ccccc2)c2n1C(C(C)C)C(=O)N2 (racemic) [Pool 63] , what % Inhibition is on record? 43

For the molecule CC(C)c1nc(C2CCCC2)n2c1NC(=O)C2C(C)C (stereo not shown) [Pool 145] , what % Inhibition is on record? 29

For the molecule CCCCc1nc(C)n2c1NC(=O)C2C(C)C (racemic) [Pool 60] , what % Inhibition is on record? 38
